System: Hs578T complex spheroid growth, percent test/control
Assay: Anticancer human tumor Hs578T cell line growth inhibition [AhR];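 further: luminescent viability signal as a proxy for spheroid growth; spheroids exposed to agents for one week after three days of growth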
Conditions: second compound 10 µM; first compound 0.3 µM; active compounds read low
I'd be grateful if you could share measured viability, T/C for these entries.
One number for each entry, in %.

Batch request: viability, T/C for each of the following molecules.
1. CCN(c1cc(-c2ccc(CN3CCOCC3)cc2)cc(C(=O)NCc2c(C)cc(C)[nH]c2=O)c1C)C1CCOCC1 + Cc1ccccc1N=Nc1ccc(NC(=O)c2ccnn2C)c(C)c1
2. Nc1ncn(C2CC(O)C(CO)S2)c(=O)n1 (stereo unspecified) + CC(CO)NC(=O)c1cc(-c2ccc(Cl)cc2)nn(-c2cnn(C)c2)c1=O
3. CCN(c1cc(-c2ccc(CN3CCOCC3)cc2)cc(C(=O)NCc2c(C)cc(C)[nH]c2=O)c1C)C1CCOCC1 + CC(CO)NC(=O)c1cc(-c2ccc(Cl)cc2)nn(-c2cnn(C)c2)c1=O
4. O=C(C=Cn1cnc(-c2cc(C(F)(F)F)cc(C(F)(F)F)c2)n1)NNc1cnccn1 + Cc1ccccc1N=Nc1ccc(NC(=O)c2ccnn2C)c(C)c1
5. Nc1ncn(C2CC(O)C(CO)S2)c(=O)n1 (stereo unspecified) + Cc1ccccc1N=Nc1ccc(NC(=O)c2ccnn2C)c(C)c1
6. CCc1c2c(nc3ccc(O)cc13)-c1cc3c(c(=O)n1C2)COC(=O)[C@]3(O)CC + CC(CO)NC(=O)c1cc(-c2ccc(Cl)cc2)nn(-c2cnn(C)c2)c1=O

**Result**
[66.8, 104, 92.3, 29.6, 66.6, 41.2]

====

Tested on: Hs578T complex spheroid growth, percent test/control
Assay: Anticancer human tumor Hs578T cell line growth inhibition [AhR];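 further: luminescent viability signal as a proxy for spheroid growth; spheroids exposed to agents for one week after three days of growth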
Settings: second compound 3.16 µM; first compound 0.0949 µM; active compounds read low
observed-property: viability, T/C

- molecule: "CCc1c2c(nc3ccc(O)cc13)-c1cc3c(c(=O)n1C2)COC(=O)[C@]3(O)CC + CC(CO)NC(=O)c1cc(-c2ccc(Cl)cc2)nn(-c2cnn(C)c2)c1=O"
  system-tested: "Hs578T complex spheroid growth, percent test/control"
  observed-property: "viability, T/C"
  result: "57.5%"

Could you tell me viability, T/C for each of these molecules? They are listed below.
1. Nc1ncn(C2CC(O)C(CO)S2)c(=O)n1 (stereo not given) + CC(CO)NC(=O)c1cc(-c2ccc(Cl)cc2)nn(-c2cnn(C)c2)c1=O
2. CCN(c1cc(-c2ccc(CN3CCOCC3)cc2)cc(C(=O)NCc2c(C)cc(C)[nH]c2=O)c1C)C1CCOCC1 + CC(CO)NC(=O)c1cc(-c2ccc(Cl)cc2)nn(-c2cnn(C)c2)c1=O
3. Nc1ncn(C2CC(O)C(CO)S2)c(=O)n1 (stereo not given) + Cc1cncc(-c2nc(NCCc3c[nH]c4ccccc34)c3ncn(C(C)C)c3n2)c1

**Result**
1: 105%; 2: 115%; 3: 47%

Look at each molecule and report its viability, T/C.
1. O=C(C=Cn1cnc(-c2cc(C(F)(F)F)cc(C(F)(F)F)c2)n1)NNc1cnccn1 + Cc1ccccc1N=Nc1ccc(NC(=O)c2ccnn2C)c(C)c1
2. CCN(c1cc(-c2ccc(CN3CCOCC3)cc2)cc(C(=O)NCc2c(C)cc(C)[nH]c2=O)c1C)C1CCOCC1 + Cc1cncc(-c2nc(NCCc3c[nH]c4ccccc34)c3ncn(C(C)C)c3n2)c1
3. O=C(C=Cn1cnc(-c2cc(C(F)(F)F)cc(C(F)(F)F)c2)n1)NNc1cnccn1 + CC(CO)NC(=O)c1cc(-c2ccc(Cl)cc2)nn(-c2cnn(C)c2)c1=O
4. CCc1c2c(nc3ccc(O)cc13)-c1cc3c(c(=O)n1C2)COC(=O)[C@]3(O)CC + Cc1cncc(-c2nc(NCCc3c[nH]c4ccccc34)c3ncn(C(C)C)c3n2)c1
5. CCN(c1cc(-c2ccc(CN3CCOCC3)cc2)cc(C(=O)NCc2c(C)cc(C)[nH]c2=O)c1C)C1CCOCC1 + Cc1ccccc1N=Nc1ccc(NC(=O)c2ccnn2C)c(C)c1
6. CC(C)CC(NC(=O)C(Cc1ccccc1)NC(=O)c1cnccn1)B(O)O (stereo not given) + Cc1cncc(-c2nc(NCCc3c[nH]c4ccccc34)c3ncn(C(C)C)c3n2)c1

**Result**
70.7%
51.5%
91.7%
18.2%
98.6%
0.24%

I need viability, T/C for every entry listed below, if you could help.
1. Nc1ncn(C2CC(O)C(CO)S2)c(=O)n1 (stereo not given) + Cc1ccccc1N=Nc1ccc(NC(=O)c2ccnn2C)c(C)c1
2. CC(C)CC(NC(=O)C(Cc1ccccc1)NC(=O)c1cnccn1)B(O)O (stereo not given) + Cc1ccccc1N=Nc1ccc(NC(=O)c2ccnn2C)c(C)c1
3. CC(C)CC(NC(=O)C(Cc1ccccc1)NC(=O)c1cnccn1)B(O)O (stereo not given) + CC(CO)NC(=O)c1cc(-c2ccc(Cl)cc2)nn(-c2cnn(C)c2)c1=O
4. CCc1c2c(nc3ccc(O)cc13)-c1cc3c(c(=O)n1C2)COC(=O)[C@]3(O)CC + Cc1ccccc1N=Nc1ccc(NC(=O)c2ccnn2C)c(C)c1

**Result**
90.7%
0.39%
0.26%
41.8%

Considering O=C(C=Cn1cnc(-c2cc(C(F)(F)F)cc(C(F)(F)F)c2)n1)NNc1cnccn1 + Cc1cncc(-c2nc(NCCc3c[nH]c4ccccc34)c3ncn(C(C)C)c3n2)c1 , its viability, T/C with Hs578T complex spheroid growth, percent test/control was recorded as 59.4%

====

Test system: Hs578T complex spheroid growth, percent test/control
Test: Anticancer human tumor Hs578T cell line growth inhibition [AhR];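 further: luminescent viability signal as a proxy for spheroid growth; spheroids exposed to agents for one week after three days of growth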
Details: second compound 0.1 µM; first compound 0.316 µM; active compounds read low
Source text: Multicellular complex tumor spheroid response to aryl hydrocarbon receptor antagonists in combination with a variety of drugs and investigational agents in selected tumor cell lines […] Compounds. […] If the clinical Cmax for an agent had not been determined, the highest concentration tested was 10 microM (Table 1). […]
observed-property: viability, T/C (%)
One number for each entry, in %.

Hello, I would appreciate it if you could give viability, T/C for each entry below.
1. COc1cccc2c1C(=O)c1c(O)c3c(c(O)c1C2=O)CC(O)(C(=O)CO)CC3OC1CC(N)C(O)C(C)O1 (stereo not given) + CC(CO)NC(=O)c1cc(-c2ccc(Cl)cc2)nn(-c2cnn(C)c2)c1=O
2. CC1(C)CCC(CN2CCN(c3ccc(C(=O)NS(=O)(=O)c4ccc(NCC5CCOCC5)c([N+](=O)[O-])c4)c(Oc4cnc5[nH]ccc5c4)c3)CC2)=C(c2ccc(Cl)cc2)C1 + Cc1cncc(-c2nc(NCCc3c[nH]c4ccccc34)c3ncn(C(C)C)c3n2)c1

**Result**
1: 64.6; 2: 115

Provide viability, T/C values for the following items, in order.
1. Nc1ncn(C2CC(O)C(CO)O2)c(=O)n1 (stereo not given) + Cc1cncc(-c2nc(NCCc3c[nH]c4ccccc34)c3ncn(C(C)C)c3n2)c1
2. COc1cc(Nc2ncc3c(n2)-c2ccc(Cl)cc2C(c2c(F)cccc2OC)=NC3)ccc1C(=O)O + Cc1ccccc1N=Nc1ccc(NC(=O)c2ccnn2C)c(C)c1
3. CC1(C)CCC(CN2CCN(c3ccc(C(=O)NS(=O)(=O)c4ccc(NCC5CCOCC5)c([N+](=O)[O-])c4)c(Oc4cnc5[nH]ccc5c4)c3)CC2)=C(c2ccc(Cl)cc2)C1 + Cc1ccccc1N=Nc1ccc(NC(=O)c2ccnn2C)c(C)c1

**Result**
108
78
100

====

Exercise: for every item that follows, state its recorded viability, T/C.
Test system: Hs578T complex spheroid growth, percent test/control
Experiment: Anticancer human tumor Hs578T cell line growth inhibition [AhR];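 further: luminescent viability signal as a proxy for spheroid growth; spheroids exposed to agents for one week after three days of growth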
Settings: second compound 1 µM; first compound 0.0316 µM; active compounds read low
Give bare numbers, in %.

Guide cases for viability, T/C, answers given:
- molecule: "CC(C)c1c(-c2ccccc2)nc2c(C#N)c[nH]n2c1=O + CC(CO)NC(=O)c1cc(-c2ccc(Cl)cc2)nn(-c2cnn(C)c2)c1=O"
  system-tested: "Hs578T complex spheroid growth, percent test/control"
  unit-abbrev: "%"
  viability, T/C: 109
- molecule: "Nc1ccccc1NC(=O)c1ccc(CNC(=O)OCc2cccnc2)cc1 + Cc1ccccc1N=Nc1ccc(NC(=O)c2ccnn2C)c(C)c1"
  system-tested: "Hs578T complex spheroid growth, percent test/control"
  unit-abbrev: "%"
  viability, T/C: 97.6
- molecule: "Cn1ncnc1C1c2n[nH]c(=O)c3cc(F)cc(c23)NC1c1ccc(F)cc1 (stereo unspecified) + Cc1cncc(-c2nc(NCCc3c[nH]c4ccccc34)c3ncn(C(C)C)c3n2)c1"
  system-tested: "Hs578T complex spheroid growth, percent test/control"
  unit-abbrev: "%"
  viability, T/C: 97
- molecule: "Nc1ccn(C2OC(CO)C(O)C2(F)F)c(=O)n1 (stereo unspecified) + Cc1ccccc1N=Nc1ccc(NC(=O)c2ccnn2C)c(C)c1"
  system-tested: "Hs578T complex spheroid growth, percent test/control"
  unit-abbrev: "%"
  viability, T/C: 61
- molecule: "Nc1ccccc1NC(=O)c1ccc(CNC(=O)OCc2cccnc2)cc1 + Cc1cncc(-c2nc(NCCc3c[nH]c4ccccc34)c3ncn(C(C)C)c3n2)c1"
  system-tested: "Hs578T complex spheroid growth, percent test/control"
  unit-abbrev: "%"
  viability, T/C: 109

Please examine the following record next.
For reference, reported viability, T/C for CC1(C)CCC(CN2CCN(c3ccc(C(=O)NS(=O)(=O)c4ccc(NCC5CCOCC5)c([N+](=O)[O-])c4)c(Oc4cnc5[nH]ccc5c4)c3)CC2)=C(c2ccc(Cl)cc2)C1 + Cc1ccccc1N=Nc1ccc(NC(=O)c2ccnn2C)c(C)c1 stands at 103

The origin of these recorded values is PubChem BioAssay AID1919010.
